# Test system: EKVX NSCLC
# methodNotes: NCI-60 one-dose screen, 48 h
# settings: 10 µM unless noted
This is part of a sample that, as a whole, favours compounds with a hit. Of some 83,000 tested, about 20% had one in any assay. The source made the active and inactive calls. The calls were made as follows: active = growth percent below 10; inactive = the rest.
Respond using exactly one of the listed classes: active, inactive

Please share the test call associated with CC(=O)Nc1cc(N2CCOCC2)c2nc(NC(=O)c3[nH]c(C)c(Cl)c3Cl)sc2c1 .
inactive

Dear all, I need the recorded test outcome for O=S(=O)(Oc1ccc(-c2cn3ccoc3n2)cc1)c1cccc(C(F)(F)F)c1 , thank you.
inactive

What classification did CCOC(=O)c1ccc(NC2=C(Cl)C(=O)c3nc(C)ccc3C2=O)cc1 end up with in this test?
inactive

What call does the record list for CC(=O)OCCCCN1C=C/C(=C\C(=O)n2ccc3ccccc32)c2ccccc21 ?
inactive

Recorded test outcome, item O=C(N/N=C\c1ccc(F)cc1)c1ccc2nc(-c3ccc(Br)cc3)[nH]c2c1
inactive

Record request — test call for O=c1nc(Nc2ccc([N+](=O)[O-])cc2O)sc2ccccc12
inactive

How did this test come out for O=C(NNc1nc2cc(F)cc(F)c2n2cccc12)c1cccnn1 ?
active

Outcome logged for COc1ccc(C(=NNS(=O)(=O)c2ccc(C)cc2)c2ccccc2)cc1OC in this assay:
inactive

Lab log entry: CC(C)[C@H]1c2[nH]c3ccccc3c2C[C@H]2C(=O)N(CCCCCCC(=O)NO)CC(=O)N12 — outcome as called in the assay?
inactive

Tell me the assay call for O=C1Nc2ccc(F)cc2/C1=C\C(=O)c1ccc(NS(=O)(=O)c2ccccc2)cc1 please.
inactive

Assay outcome for Cc1ccc(C(=O)Nc2ccc(CNCCN3CCNCC3)c(C(F)(F)F)c2)cc1C#Cc1cnc2cccnn12 : what was it?
inactive

For this compound, state the assay outcome: O=C(CCCCCCN1CC(=O)N2[C@@H](c3cccs3)c3[nH]c4ccccc4c3C[C@H]2C1=O)NO
inactive

Please state the recorded outcome for this compound: COc1ccccc1/C=C/C(=O)c1nnn(-c2ccc(F)cc2)c1C
inactive

So what was the verdict on Cc1ccc2c(n1)C(=O)C(Cl)=C(Nc1cccc(C(=O)OC(C)(C)C)c1)C2=O in this test?
inactive

Give the logged outcome of this assay for the following compound: NC(=O)n1c(=O)n(-c2cccc(C(F)(F)F)c2)c(=O)c2cc(-c3ccc(F)cc3F)ccc21
active

Answer briefly: the call reported for O=C(CSc1nnc(-c2cccs2)n1-c1ccccc1)Nc1ccccc1F in this assay.
inactive

How was Nc1ccc(Nc2ncnc3sc4c(c23)CCN(Cc2ccccc2)C4)cc1 classified in this test?
inactive

What was the test verdict on Oc1ccc(-c2nc3ccc(/C(=N\N=C\c4ccc(Cl)cc4)c4ccccc4)cc3[nH]2)cc1 ?
inactive

Would you mind telling me which call this test gave CC(=C(c1ccc(OCCN2CCCC2)cc1)c1ccc(OCCN2CCCC2)cc1)c1ccc(Cl)cc1 ?
inactive

Lab log entry: CCCCCCNC(=O)Oc1ccc(/C(=C(/C)c2ccc(Cl)cc2)c2ccc(OCCN3CCCCCC3)cc2)cc1 — outcome as called in the assay?
inactive

// return assay outcome for N/C(=N\C(N)=N\c1nc2ccccc2s1)c1ccc(Cl)cc1
inactive

What was the test verdict on C[C@H](Nc1ncnc2ccc(-c3cnc(Cl)c(NS(C)(=O)=O)c3)cc12)c1ccccc1 ?
active

Write down the call the test reported for this compound. Item: COc1cc2oc(-c3cccc(NC(=O)[C@@H](N)C(C)C)c3)cc(=O)c2c(OC)c1OC
inactive

Please state the recorded outcome for this compound: CNC(=O)Nc1ccc(Nc2cc(-c3ccc(-n4cccn4)cc3)[nH]n2)c(C)c1
inactive

What classification did CC(=O)N1N=C(c2cc3ccccc3oc2=O)CC1c1cn(-c2ccccc2)nc1-c1ccc(C)cc1 (stereo not drawn) end up with in this test?
inactive

Called result for Cc1ccc(S(=O)(=O)c2nc(-c3ccc(F)cc3)oc2S(C)(=O)=O)cc1
inactive

Tell me the recorded outcome of this test for O=C(Nc1ccc(Cl)c(C(F)(F)F)c1)Nc1ccc2oc(=O)ccc2c1 .
inactive

Tell me the recorded outcome of this test for CCOC(=O)c1c(NC(=O)c2ccc(C(F)(F)F)cc2)sc2c3c(ccc12)OCN(C)C3 .
inactive

Could you kindly confirm the outcome this assay logged for O=C(Nc1ccc(Cl)c(C(F)(F)F)c1)Nc1ccc2c(ccn2C(=O)c2cccc(F)c2)c1 ?
inactive

# lookup: test call for O=C(/C=C/c1ccc(F)cc1)Nc1cccc2cccnc12
inactive

Call for entry CN1CCN(Cc2ccc(NC(=O)c3cncc(C#Cc4cnc5ccc(OC6CCOCC6)nn45)c3)cc2C(F)(F)F)CC1 :
active

Per the assay record, what outcome was assigned to Cc1cccc(N2CCN(C3=C(Cl)C(=O)c4ncccc4C3=O)CC2)c1 ?
inactive

Dear all, I need the recorded test outcome for CNC(=O)c1cc(-n2ccc3cc(NC(=O)Nc4ccc(N5CCN(C)CC5)c(C(F)(F)F)c4)ccc32)ccn1 , thank you.
inactive

Please indicate how the test categorized NS(=O)(=O)c1ccc(Nc2nc(N/N=C/C=C/c3ccccc3)nc(Nc3ccccc3)n2)cc1 .
inactive

Hey, what did the test say about Cc1ccc(S(=O)(=O)NCCCNc2nccc(-c3[nH]c(-c4ccccc4)nc3-c3ccc(F)c(O)c3)n2)cc1 ?
inactive

Write down the call the test reported for this compound. Item: Cn1cc(-c2nnc(N)nc2-c2c[nH]c3ccc(Br)cc23)c2cc(Br)ccc21
inactive

# lookup: test call for O=C(/C=C/c1cccc(Br)c1)c1cccc(OCCCCOc2cccc(C(=O)/C=C/c3cccc(Br)c3)c2)c1
inactive

Recorded test outcome, item COc1ccccc1N1CCN(C2=C(Cl)C(=O)c3ncccc3C2=O)CC1
inactive
